Target: Nonstructural protein 1 (Influenza A virus, UniProt Q194T2)
Sequence (Q194T2 whole entry): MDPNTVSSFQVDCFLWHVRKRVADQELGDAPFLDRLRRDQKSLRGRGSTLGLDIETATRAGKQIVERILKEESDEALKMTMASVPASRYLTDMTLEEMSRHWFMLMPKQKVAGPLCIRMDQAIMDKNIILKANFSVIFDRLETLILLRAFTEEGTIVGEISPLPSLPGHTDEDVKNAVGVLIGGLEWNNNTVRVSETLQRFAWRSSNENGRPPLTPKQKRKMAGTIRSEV
Assay type: functional, Influenza A virus (A/California/07/2009(H1N1))
Activity calls are given as the source filed them.
Listed compounds paired with reported IC50
readoutKind: IC50

compound | result
CN(C)c1ccc(N=Nc2cccc(F)c2)cc1 | 25 µM (active)
O=C(N/N=C/c1ccccc1O)C(=O)Nc1ccccn1 | 10.8 µM (active)
O=C1c2cccc(NCCCNCCO)c2C(=O)c2cccc(NCCCNCCO)c21 | 10.1 µM (active)
O=C1c2ccccc2-c2onc3ccc(N4CCCC4)c1c23 | 23.6 µM (active)
Cc1c(NN=C2C(=O)NC(=O)NC2=O)c(=O)n(-c2ccccc2)n1C | 2.12 µM (active)
O=C(CSc1ccc(-c2ccccn2)nn1)c1ccccc1 | 10.9 µM (active)
COCc1cc(O)nc(Nc2nc3ccccc3o2)n1 | 10.8 µM (active)
CCc1ccc2c(c1)C1(NN=C(c3ccccc3)S1)C(=O)N2 (stereo not drawn) | 45.5 µM (active)
